pEC50 values for the compounds below.
biological target: OR5P3 (Homo sapiens); assay: GloSensor cAMP assay, OR5P3-transfected Hana3A cells; conditions: activation of OR5P3, Hana3A cells, mean ± s.e.m., at least three experiments
Sequence (Q8WZ94 whole entry): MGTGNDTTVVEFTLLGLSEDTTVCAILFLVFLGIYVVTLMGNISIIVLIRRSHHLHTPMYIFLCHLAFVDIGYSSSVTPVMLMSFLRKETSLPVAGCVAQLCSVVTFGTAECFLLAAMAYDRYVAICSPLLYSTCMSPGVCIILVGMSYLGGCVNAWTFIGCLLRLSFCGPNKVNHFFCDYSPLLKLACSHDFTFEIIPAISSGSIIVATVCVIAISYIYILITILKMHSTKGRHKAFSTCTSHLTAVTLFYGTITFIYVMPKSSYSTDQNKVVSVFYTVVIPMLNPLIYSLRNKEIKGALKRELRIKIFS
pEC50: −log10 of the molar value.

compound | pEC50
CCCC1CC(=O)C=C(C)C1 (stereo not drawn) | 3.32
C=C(C)C1CC=C(C)C(=O)C1 (single isomer, unassigned; (-)) [(-)-carvone, reference compound] | 3.41
CCCCCCCCO | 3.94

* * *

Biological target: OR51E1 (Homo sapiens, UniProt Q8TCB6)
Construct: host or cells: Hana3A cells (HEK293T-derived), co-transfected with pCI-RTP1S and pGlo-22F
Sequence (Q8TCB6 1-318): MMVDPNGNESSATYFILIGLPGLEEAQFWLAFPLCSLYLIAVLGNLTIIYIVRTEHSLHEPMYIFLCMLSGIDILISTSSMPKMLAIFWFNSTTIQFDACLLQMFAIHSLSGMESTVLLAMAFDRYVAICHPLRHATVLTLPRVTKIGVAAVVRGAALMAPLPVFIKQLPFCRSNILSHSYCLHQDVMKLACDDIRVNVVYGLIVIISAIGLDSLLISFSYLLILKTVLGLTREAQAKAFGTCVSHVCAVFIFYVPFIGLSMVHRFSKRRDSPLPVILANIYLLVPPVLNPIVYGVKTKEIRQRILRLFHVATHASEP
Test: GloSensor cAMP assay, OR51E1-transfected Hana3A cells
Type: cell-based
Conditions: activation of OR51E1, Hana3A cells, mean ± s.e.m., at least three experiments; read-out: EC50

smiles-structure | target | unit-symbol | EC50
CCC(=O)O | OR51E1 (Homo sapiens, UniProt Q8TCB6) | µM | 923
CC(C)CC(=O)O | OR51E1 (Homo sapiens, UniProt Q8TCB6) | µM | 153
